Recorded apparent KD of MS2 coat protein values for a group of sequences are listed next.
System: MS2 coat protein
experiment: apparent KD of MS2 coat protein; designed switch direction (-1 OFF switch, 1 ON switch): -1; higher = weaker reporter binding
measurementConditions: Eterna round: R95; input ligand: none
Record the value in nM, omitting the unit from your answer.

In the examples that follow, each entry is paired with its recorded apparent KD of MS2 coat protein.
Query: GET /values?readout=apparent KD of MS2 coat protein&item= ACGAAAGCAAACAGGUGAAACAUGAGGAUCACCCAUGUCCUCAUUUGCUCGUCUUAUAAGCUAUGCGAAAGCAUAGC [Mat - Sensor v3 - turn-off var 1 - Eli Mod - D53] (puzzle: Sensor v3, turn-off variant 1)
Response: 72.4

Query: GET /values?readout=apparent KD of MS2 coat protein&item= CUAGUCCGAGGAUAUAUAUUGUGAAACAUGAGGAUCACCCAUGUUAUAAUAUGGAAAUAAAUAGAAGGCGGACUAG [Mat - Exclusion 5 - JL mod - D57] (puzzle: Exclusion 5)
Response: 18.8

Query: GET /values?readout=apparent KD of MS2 coat protein&item= GAUUAUGCGAGCUUUAGGGACAUGAGGAUCACCCAUGUUCGUCUUAUUAGUCUGAGUACACUGACAUACCUAAAUCU [JMF 62] (puzzle: Sensor v3, turn-off variant 1)
Response: 13.3

Next:
Query: GET /values?readout=apparent KD of MS2 coat protein&item= UUUAAUUUUUUUUUUUUACAAGCUUUUUGCUCGUCUUAUACAUGAGGAUCACCCAUGUGGGUGGGAGAUAAAUUAUC [JMF 24] (puzzle: Sensor v3, turn-off variant 2)
Response: 341

---

Tested on: MS2 coat protein
experiment: apparent KD of MS2 coat protein; designed switch direction (-1 OFF switch, 1 ON switch): 1; higher = weaker reporter binding
measurementConditions: input ligand: FMN 200 uM
Classification field: 1 = apparent KD of MS2 coat protein at or over 50 nM; 0 = apparent KD of MS2 coat protein under 50 nM.

Record excerpt, results attached:
Query: Threshold query (apparent KD of MS2 coat protein >= 50 nM) on GUGGCGGGUUGAGGAUAUUGGUUGCCUCUGUUUUACAUGAGGAUCACCCAUGUGGGUUGCGGUUUCGAGAAGGGAGGUUGCUGG [salish99_SSNG2_r04_054] (Eterna round: R96, puzzle: Same State NG 2)
Response: 1

Query: Threshold query (apparent KD of MS2 coat protein >= 50 nM) on UGAAUGGUGAUAGGAUAUACAUGAGGAAUCCUCGUAGAAGGAUCACGACAUGAGGAUCACCCAUGUAGCCGUCCGUAGACGGCU [salish99_SSNG1_r04_003] (Eterna round: R96, puzzle: Same State NG 1)
Response: 1

Query: Threshold query (apparent KD of MS2 coat protein >= 50 nM) on GCGGAACGGGCCGACAUGAGGAUCACCCAUGUGGCCUCAUGUCAGGAUAUCGGGAAGAAGAAAACCGAGAAGGGACGGUGACGC [AK SSNG3-V2-32] (Eterna round: R96, puzzle: Same State NG 3)
Response: 0

Query: Threshold query (apparent KD of MS2 coat protein >= 50 nM) on GCCGACUAAUGAGGAUAUGGCACCUUAUUGGUGCCAGAAGGCAUGUCAAUUGACAUGAGGAUCACCCAUGUAUUAUAGUUGGCG [salish99_SSNG1_r04_602] (Eterna round: R96, puzzle: Same State NG 1)
Response: 1

Query: Threshold query (apparent KD of MS2 coat protein >= 50 nM) on UGGUACAUGAGAGGAUAUGGGUAGAUGACAUGAGGAUCACCCAUGUUAAAGUCCGAAAGGACAUCCUAGAAGGCUCAUGUACCU [MOD of JL SSNG1 3.99] (Eterna round: R96, puzzle: Same State NG 2)
Response: 0

Query: Threshold query (apparent KD of MS2 coat protein >= 50 nM) on GCUUGCGGCGCAGGAUAUGGGUGCCUGUACAUGAGGAUCACCCAUGUUAAGGGACGGAUUACGAACCAGAAGGGCGUGGCGGGC [Ceerce] (Eterna round: R96, puzzle: Same State NG 2)
Response: 0

Query: Threshold query (apparent KD of MS2 coat protein >= 50 nM) on UUAAUGAAGUAAGGAUAUACAUGAGGAUCUCUCGUAGAAGGUACUAUACAUGAGGAUCACCCAUGUGCCGGUCCGUAGACUGGA [JL SSNG1 1.04] (Eterna round: R96, puzzle: Same State NG 1)
Response: 1

Query: Threshold query (apparent KD of MS2 coat protein >= 50 nM) on GUGGUCAGACAUGAGGAUCACCCAUGUGGAAUAAAUAACGACUAGGAUAUAUAAUAUAGGAUAUAAUAGAAGGAGUGAUUGGUG (Eterna round: R96, puzzle: Same State NG 3)
Response: 1

Query: Threshold query (apparent KD of MS2 coat protein >= 50 nM) on CACCCAAAGGAAGGAUAUAGGGACUCGAGGACAACAUGAGGAUCACCCAUGUCCCGCCAUCGGCCUUAGAAGGUCCAAGGGAAC [Eternabot solution 7] (Eterna round: R96, puzzle: Same State NG 2)
Response: 0

Query: Threshold query (apparent KD of MS2 coat protein >= 50 nM) on CUCCGGAUUGACAUGAGGAUCACCCAUGUGCCCUCAUUAAAGUAGGAUAUACCUCGCAGUCGGGAGUAGAAGGACUUUAUGAGU [Eternabot solution 36] (Eterna round: R96, puzzle: Same State NG 3)
Response: 1

Next:
Query: Threshold query (apparent KD of MS2 coat protein >= 50 nM) on AAAAGAAACAUGUACCUGAGUACAUGAAAACAUGAGGAUCACCCAUGUAACAAGUUGGGUGCUUGUCUUAUAAGAAA [JL pocket 4] (Eterna round: R96, puzzle: Sensor for hsa-mir-208a)
Response: 1

Query: Threshold query (apparent KD of MS2 coat protein >= 50 nM) on ACAUGAGGAUCACCCAUGUGAAAAGACCUAGAGGUGAAGCCGCAGGAUAUAUCACAAACGAGAAGAUAGAAGGGCGUACGCAUG [Eternabot solution 9] (Eterna round: R96, puzzle: Same State NG 3)
Response: 1
